test system: U2OS; test: Multiplex assay against U2OS; assay type: toxicity, cell-based; conditions: human, 24 h, 10 µM, compound concentration 10 uM, replicate 1
Outcome: True for Population Mitochondria Different-Phenotype (%) of at least 3%; False for anything lower.

Solved entries:
Test whether the compound Cc1sc2c(c1C)C(c1ccc(Cl)cc1)=N[C@@H](CC(=O)NCCCCCCCCNC(=O)COc1cccc3c1C(=O)N(C1CCC(=O)NC1=O)C3=O)c1nnc(C)n1-2 (some centres not stated) records Population Mitochondria Different-Phenotype (%) of 3% or higher. True

Test whether the compound Cl.N=C(N)NC(=O)Cc1c(Cl)cccc1Cl [GUANFACINE HYDROCHLORIDE] records Population Mitochondria Different-Phenotype (%) of 3% or higher. False

Test whether the compound N#Cc1cc(F)cc(-c2nc(-c3ccc(F)cn3)no2)c1 records Population Mitochondria Different-Phenotype (%) of 3% or higher. False

Test whether the compound CN[C@@H](C)C(=O)N[C@H](C(=O)N1CCC[C@H]1C(=O)Nc1snnc1-c1ccccc1)C1CCCCC1 records Population Mitochondria Different-Phenotype (%) of 3% or higher. True

Test whether the compound O=C(CCCc1ccccc1)Nc1nc2ccccc2c(=O)s1 records Population Mitochondria Different-Phenotype (%) of 3% or higher. False

More entries:
Test whether the compound Cl.NCCc1ccc(O)c(O)c1 [DOPAMINE HYDROCHLORIDE] records Population Mitochondria Different-Phenotype (%) of 3% or higher. False

Test whether the compound O=C(NCCN1CCC(n2c(=O)[nH]c3cc(Cl)ccc32)CC1)c1ccc(F)cc1 [HALOPEMIDE] records Population Mitochondria Different-Phenotype (%) of 3% or higher. True

Test whether the compound CCCCC(=O)N(Cc1ccc(-c2ccccc2-c2nnn[nH]2)cc1)[C@H](C(=O)O)C(C)C records Population Mitochondria Different-Phenotype (%) of 3% or higher. False

====

Recorded Total Cell Count for the following compounds
test system: Fibroblast; experiment: Multiplex assay against human fibroblast; type: toxicity, cell-based; conditions: 12 h, 10 µM, compound concentration 10 uM, replicate 2

A selection of reference data follows.
Could you share which Total Cell Count value was measured for Cc1onc(-c2ccccc2Cl)c1C(=O)N(C)c1ccc(Cl)cc1 ? 151

Could you share which Total Cell Count value was measured for CCCCC(=O)N(Cc1ccc(-c2ccccc2-c2nnn[nH]2)cc1)[C@H](C(=O)O)C(C)C ? 130

Could you share which Total Cell Count value was measured for O=C(CCCc1ccccc1)Nc1nc2ccccc2c(=O)s1 ? 133

More entries:
Could you share which Total Cell Count value was measured for Cl.N=C(N)NC(=O)Cc1c(Cl)cccc1Cl [GUANFACINE HYDROCHLORIDE] ? 127

Could you share which Total Cell Count value was measured for Br.CS(=O)(=O)Nc1c(O)ccc2c1CCCC2C1=NCCN1 (centres undefined) ? 129

Could you share which Total Cell Count value was measured for Cc1cccc(NC(=O)CN2CCC(c3ccccn3)CC2)c1.Cl.Cl ? 100

Could you share which Total Cell Count value was measured for CN(C)C(=O)Cn1cc(-c2ccc(-c3cncc4ccccc34)cc2)cn1 ? 98

Could you share which Total Cell Count value was measured for CC(=O)Nc1cccc2c1c(Sc1ccc(Cl)cc1)c(C)n2CC(=O)O [AZD1981] ? 112

Could you share which Total Cell Count value was measured for COC[C@@H](c1ccc(C(F)(F)F)cc1)N1CCN(C2(C)CCN(C(=O)c3c(C)ncnc3C)CC2)C[C@@H]1C.O=C(O)/C=C\C(=O)O [VICRIVIROC MALEATE] ? 186

====

Recorded Population Hoechst High Intensity Objects (%) for the following molecules
tested on: Fibroblast; assay: Multiplex assay against human fibroblast; type: toxicity, cell-based; conditions: 12 h, 1 µM, compound concentration 1 uM, replicate 1
Answer in %, number only, no unit symbol.

A selection of reference data follows.
Could you share which Population Hoechst High Intensity Objects (%) value was measured for O=C1[C@H](Cc2ccc(O)cc2)N2C(=O)CCN(C(=O)NCc3ccccc3)[C@H]2CN1Cc1cccc2ccccc12 ? 3

Could you share which Population Hoechst High Intensity Objects (%) value was measured for CN(C)C(=O)Cn1cc(-c2ccc(-c3cncc4ccccc34)cc2)cn1 ? 0

Could you share which Population Hoechst High Intensity Objects (%) value was measured for CC(C)c1noc(N2CCC(COc3ccc(-c4ccc(S(C)(=O)=O)cc4)nc3)CC2)n1 [GSK-1292263] ? 2

Could you share which Population Hoechst High Intensity Objects (%) value was measured for CN1CCN(c2cc(-c3ccccc3)nc(N)n2)CC1 ? 2

More entries:
Could you share which Population Hoechst High Intensity Objects (%) value was measured for CC(C)(C)c1cc(NC(=O)Nc2ccc(-c3cn4c(n3)sc3cc(OCCN5CCOCC5)ccc34)cc2)no1 [QUIZARTINIB] ? 2

Could you share which Population Hoechst High Intensity Objects (%) value was measured for CN[C@@H](C)C(=O)N[C@H](C(=O)N1CCC[C@H]1C(=O)Nc1snnc1-c1ccccc1)C1CCCCC1 [GDC-0152] ? 4

Could you share which Population Hoechst High Intensity Objects (%) value was measured for CCCCCC(O)/C=C/[C@H]1C(=O)CC(O)C1C/C=C\CCCC(=O)O (some centres not stated) ? 1

Could you share which Population Hoechst High Intensity Objects (%) value was measured for Cc1cnc(-c2cc(N3CCN(C(=O)CCS(C)(=O)=O)CC3)ncc2Cl)c(C)c1 ? 1

Could you share which Population Hoechst High Intensity Objects (%) value was measured for CC(/C=C1\SC(=S)N(CCCC(=O)Nc2ccc(C(=O)O)c(O)c2)C1=O)=C\c1ccccc1 ? 2

Could you share which Population Hoechst High Intensity Objects (%) value was measured for COc1cccc2c1c(NS(=O)(=O)c1ccc(Cl)s1)nn2Cc1cccc(CNC(=O)C(C)(C)O)c1 ? 0

Could you share which Population Hoechst High Intensity Objects (%) value was measured for Cl.N=C(N)NC(=O)Cc1c(Cl)cccc1Cl [GUANFACINE HYDROCHLORIDE] ? 2

====

Recorded Population Fragmented Nuclei (%) for the following compounds
system: U2OS; assay: Multiplex assay against U2OS; assay type: toxicity, cell-based; details: human, 24 h, 10 µM, compound concentration 10 uM, replicate 1
Answer in %, number only, no unit symbol.

A selection of reference data follows.
Could you share which Population Fragmented Nuclei (%) value was measured for Br.CS(=O)(=O)Nc1c(O)ccc2c1CCCC2C1=NCCN1 (stereo not drawn) ? 31

Could you share which Population Fragmented Nuclei (%) value was measured for CC(C)COc1ccc(CNC(=O)N(Cc2ccc(F)cc2)C2CCN(C)CC2)cc1 ? 28

Could you share which Population Fragmented Nuclei (%) value was measured for CCc1cc2cc(NS(=O)(=O)c3ccc(C#N)cc3)ccc2n(CC)c1=O ? 23

Could you share which Population Fragmented Nuclei (%) value was measured for COc1cccc2c1c(NS(=O)(=O)c1ccc(Cl)s1)nn2Cc1cccc(CNC(=O)C(C)(C)O)c1 ? 25

Could you share which Population Fragmented Nuclei (%) value was measured for COC[C@@H](c1ccc(C(F)(F)F)cc1)N1CCN(C2(C)CCN(C(=O)c3c(C)ncnc3C)CC2)C[C@@H]1C.O=C(O)/C=C\C(=O)O [VICRIVIROC MALEATE] ? 25

In the following, a different compound is considered.
Could you share which Population Fragmented Nuclei (%) value was measured for CCCCC1=NC2(CCCC2)C(=O)N1Cc1ccc(-c2ccccc2-c2nnn[nH]2)cc1 ? 18

====

tested on: U2OS; test: Multiplex assay against U2OS; assay type: toxicity, cell-based; conditions: human, 48 h, 10 µM, compound concentration 10 uM, replicate 2
Outcome: TRUE for Population Mitotic Cells (%) of at least 4%; FALSE for anything lower.

Solved entries:
Test whether the compound Cc1onc(-c2ccccc2Cl)c1C(=O)N(C)c1ccc(Cl)cc1 records Population Mitotic Cells (%) of 4% or higher. TRUE

Test whether the compound COc1cccc2c1c(NS(=O)(=O)c1ccc(Cl)s1)nn2Cc1cccc(CNC(=O)C(C)(C)O)c1 records Population Mitotic Cells (%) of 4% or higher. FALSE

Test whether the compound CCCCC(=O)N(Cc1ccc(-c2ccccc2-c2nnn[nH]2)cc1)[C@H](C(=O)O)C(C)C records Population Mitotic Cells (%) of 4% or higher. TRUE

Test whether the compound Cc1c(CC(=O)O)c2cccnc2n1Cc1ccc(S(C)(=O)=O)cc1C(F)(F)F [FEVIPIPRANT] records Population Mitotic Cells (%) of 4% or higher. FALSE

Test whether the compound CCCOc1ccc2[nH]cc(C3=CCNCC3)c2n1.Cl records Population Mitotic Cells (%) of 4% or higher. TRUE

Test whether the compound Cc1cccc(NC(=O)CN2CCC(c3ccccn3)CC2)c1.Cl.Cl records Population Mitotic Cells (%) of 4% or higher. TRUE

Test whether the compound Cl.NCCc1ccc(O)c(O)c1 [DOPAMINE HYDROCHLORIDE] records Population Mitotic Cells (%) of 4% or higher. FALSE

Test whether the compound CC(C)(C)c1cc(NC(=O)Nc2ccc(-c3cn4c(n3)sc3cc(OCCN5CCOCC5)ccc34)cc2)no1 [QUIZARTINIB] records Population Mitotic Cells (%) of 4% or higher. TRUE

More entries:
Test whether the compound CC(/C=C1\SC(=S)N(CCCC(=O)Nc2ccc(C(=O)O)c(O)c2)C1=O)=C\c1ccccc1 records Population Mitotic Cells (%) of 4% or higher. TRUE

Test whether the compound CCCCCC(O)/C=C/[C@H]1C(=O)CC(O)C1C/C=C\CCCC(=O)O (stereo partly specified) records Population Mitotic Cells (%) of 4% or higher. FALSE

Test whether the compound N#Cc1cc(F)cc(-c2nc(-c3ccc(F)cn3)no2)c1 records Population Mitotic Cells (%) of 4% or higher. TRUE

Test whether the compound Br.CS(=O)(=O)Nc1c(O)ccc2c1CCCC2C1=NCCN1 (stereo unspecified) records Population Mitotic Cells (%) of 4% or higher. FALSE

Test whether the compound CC(=O)Nc1cccc2c1c(Sc1ccc(Cl)cc1)c(C)n2CC(=O)O [AZD1981] records Population Mitotic Cells (%) of 4% or higher. TRUE

Test whether the compound N#Cc1c(Oc2cccc(OS(=O)(=O)CCCC(F)(F)F)c2)cccc1C(F)(F)F records Population Mitotic Cells (%) of 4% or higher. FALSE

Test whether the compound O=C1[C@H](Cc2ccc(O)cc2)N2C(=O)CCN(C(=O)NCc3ccccc3)[C@H]2CN1Cc1cccc2ccccc12 records Population Mitotic Cells (%) of 4% or higher. TRUE
